TARGET_OF_ASSAY: S. aureus FtsZ GTPase (Staphylococcus aureus, UniProt P0A031)
Sequence (P0A031 1-390): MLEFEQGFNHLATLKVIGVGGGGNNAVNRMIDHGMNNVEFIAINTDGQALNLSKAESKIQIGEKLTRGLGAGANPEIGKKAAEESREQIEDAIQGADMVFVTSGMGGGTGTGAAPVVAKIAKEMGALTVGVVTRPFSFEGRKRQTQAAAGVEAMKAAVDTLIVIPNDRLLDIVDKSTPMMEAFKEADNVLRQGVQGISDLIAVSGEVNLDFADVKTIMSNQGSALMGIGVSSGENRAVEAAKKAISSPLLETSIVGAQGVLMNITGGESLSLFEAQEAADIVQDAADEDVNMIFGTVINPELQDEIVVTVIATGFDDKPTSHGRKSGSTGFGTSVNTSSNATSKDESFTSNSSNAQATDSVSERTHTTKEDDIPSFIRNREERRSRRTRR
Below, each entry is listed with its recorded IC50.

{"STRUCTURE": "COc1cc(-c2cc3cc(OC)c(OC)c(OC)c3c(C)[n+]2C)cc(-c2cc(-c3ccc(F)cc3)cc(-c3ccc(F)cc3)c2)c1OC.[I-]", "ENDPOINT_VALUE": "< 100 µM"}

Now, please, on to the next compound.
Exam item: # returns recorded IC50 (system: S. aureus FtsZ GTPase (Staphylococcus aureus, UniProt P0A031)) for `COc1cc(-c2cc3ccccc3c[n+]2C)cc(-c2cccc(-c3ccc(F)cc3)c2)c1OC.[I-]`
Marked response: < 100 µM
